measurement target: SfurOBP2 (Sogatella furcifera, UniProt V5T759)
Sequence (V5T759 entry or part of it): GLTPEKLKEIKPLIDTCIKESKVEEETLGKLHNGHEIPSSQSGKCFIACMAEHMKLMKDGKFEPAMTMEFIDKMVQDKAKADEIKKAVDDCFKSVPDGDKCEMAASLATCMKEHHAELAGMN
protocol summary: biochemical
Type: binding
reported conditions: ligand concentration 10 (unit not given), replicate column 3 of 3
measure name: Fluorescence competitive binding assay, OBP2 (raw fluorescence reading)
Reply with the value as a number alone.

Answered examples (5):
CC/C=C\CCO [(Z)-3-hexenol]	16747
COC(=O)c1ccccc1	17417
CCCCCCCCCCOCCCCCCCCCC	45169
CCCCCCCCCCCCCCCCCCC	22157
CCCCCCCCCCCCCCCC	13308

[Q] // Fluorescence competitive binding assay, OBP2 (raw fluorescence reading) lookup, key: CCCCCC(C)=O
[A] 17972

[Q] // Fluorescence competitive binding assay, OBP2 (raw fluorescence reading) lookup, key: C=C1CC/C=C(\C)CC[C@@H]2[C@@H]1CC2(C)C
[A] 15514

[Q] // Fluorescence competitive binding assay, OBP2 (raw fluorescence reading) lookup, key: C=CC(C)(O)CCC=C(C)CCC=C(C)C (mixture of isomers)
[A] 13950

[Q] // Fluorescence competitive binding assay, OBP2 (raw fluorescence reading) lookup, key: C[C@@H]1CC[C@H]2C(C)(C)[C@H]3C[C@@]12CC[C@@]3(C)O
[A] 26522

Data provenance is paper PMC6409085.
